The origin of these recorded values is patent US8338565B2.

target: TNFα / TNFα receptor (TNFα R1/Fc) (Homo sapiens); construct: purchased R&D Systems; assay: Inhibition of binding of TNFα to the TNFα receptor (plate ELISA competition); conditions: Table 2; read-out: Activity (IC50, inhibition of TNFα binding to TNFα R1/Fc)
pIC50: −log10 of the molar value. Numbered stars: 1 amine (or outer) side, 2 acyl side, 3 side chain; on linkers, the order of the positions; unused ones are H or OH. Bridge positions count the residues as written; N and C are the ends. Square brackets hold non-standard residues; d marks the D form. Peptide text beside a SMILES is read from it. Phe(4-NO2) = N[C@@H](Cc1ccc([N+](=O)[O-])cc1)C(=O)O; Bip = N[C@@H](Cc1ccc(-c2ccccc2)cc1)C(=O)O; Phe(4-NH2) = Nc1ccc(C[C@H](N)C(=O)O)cc1; d(hPhe) = N[C@H](CCc1ccccc1)C(=O)O; d2Thi = N[C@H](Cc1cccs1)C(=O)O; Suc = O=C(CCC(=O)[*:2])[*:1]
reportedEndpoint: pIC50

Example compounds with recorded pIC50:
1) O=C(O)[C@@H]1Cc2ccc(cc2)NC(=O)[C@@H](O)[C@H](O)C(=O)N[C@H](Cc2cccs2)C(=O)N[C@@H](Cc2ccc(-c3ccccc3)cc2)C(=O)N[C@H](Cc2ccccc2)C(=O)N1: < 4.00
2) O=C1COc2ccc(cc2)C[C@@H](C(=O)O)NC(=O)[C@H](Cc2ccccc2)NC(=O)[C@H](Cc2ccc(-c3ccccc3)cc2)NC(=O)[C@@H](Cc2cccs2)N1: < 4.00
3) O=C1CCC(=O)N[C@H](Cc2cccs2)C(=O)N[C@@H](Cc2ccc([N+](=O)[O-])cc2)C(=O)N[C@H](Cc2ccccc2)C(=O)N[C@H](C(=O)O)Cc2ccc(cc2)N1 [Compound 106] ([d2Thi][Phe(4-NO2)][dF][Phe(4-NH2)]-OH; linker N-4 via Suc): < 4.00
4) O=C1CCC(=O)N[C@H](Cc2cccs2)C(=O)N[C@@H](Cc2ccc(-c3ccccc3)cc2)C(=O)N[C@H](Cc2ccccc2)C(=O)Nc2ccc(cc2)C[C@@H](C(=O)O)N1: < 4.00

Exercise: Tell me reported pIC50 for O=C1CCC(=O)N[C@H](CCc2ccccc2)C(=O)N[C@@H](Cc2ccc(-c3ccccc3)cc2)C(=O)N[C@H](Cc2ccccc2)C(=O)N[C@H](C(=O)O)Cc2ccc(cc2)N1 [Compound 117] ([d(hPhe)][Bip][dF][Phe(4-NH2)]-OH; linker N-4 via Suc) , tested with TNFα / TNFα receptor (TNFα R1/Fc) (Homo sapiens).
Key: > 5.00

---

Reported inhibition at 10 µM by item:
system: TNF-α (degradation of IkB in HeLa cells or A431 cells); assay: Human cell-based assay: inhibition of TNF-α induced degradation of IkB; settings: 10 μM compound, HeLa or A431 cells, read-out: Inhibition at Various Compound Concentrations, 10 μM
Numbered stars: 1 amine (or outer) side, 2 acyl side, 3 side chain; on linkers, the order of the positions; unused ones are H or OH. Bridge positions count the residues as written; N and C are the ends. Square brackets hold non-standard residues; d marks the D form. Peptide text beside a SMILES is read from it. Phe(4-CF3) = N[C@@H](Cc1ccc(C(F)(F)F)cc1)C(=O)O; dPhe(4-NH2) = Nc1ccc(C[C@@H](N)C(=O)O)cc1; d(hPhe) = N[C@H](CCc1ccccc1)C(=O)O; Suc = O=C(CCC(=O)[*:2])[*:1]

1) O=C1CCC(=O)N[C@H](CCc2ccccc2)C(=O)N[C@@H](Cc2ccc(C(F)(F)F)cc2)C(=O)N[C@H](Cc2ccccc2)C(=O)N[C@@H](C(=O)O)Cc2ccc(cc2)N1 [Compound 3] ([d(hPhe)][Phe(4-CF3)][dF][dPhe(4-NH2)]-OH; linker N-4 via Suc): < 10%

Attention now turns to another entry.
Exercise: If you can, please state the reported inhibition at 10 µM value of O=C(O)[C@@H]1Cc2ccc(cc2)NC(=O)[C@H](O)[C@@H](O)C(=O)N[C@H](Cc2cccs2)C(=O)N[C@@H](Cc2ccc(-c3ccccc3)cc2)C(=O)N[C@@H](CCc2ccccc2)C(=O)N1 [Compound 290] .
Key: < 10%

---

Reported pIC50 by item:
molecular target: TNFα / TNFα receptor (TNFα R1/Fc) (Homo sapiens, UniProt P01375); construct: purchased R&D Systems; test: Inhibition of binding of TNFα to the TNFα receptor (plate ELISA competition); details: Table 2; read-out: Activity (IC50, inhibition of TNFα binding to TNFα R1/Fc)
Sequence (P01375 77-233 limits assumed, species assumed): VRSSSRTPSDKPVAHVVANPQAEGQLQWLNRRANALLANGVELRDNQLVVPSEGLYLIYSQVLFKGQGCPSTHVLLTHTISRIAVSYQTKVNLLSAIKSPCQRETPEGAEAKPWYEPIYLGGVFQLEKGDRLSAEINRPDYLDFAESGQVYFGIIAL
pIC50: −log10 of the molar value. Numbered stars: 1 amine (or outer) side, 2 acyl side, 3 side chain; on linkers, the order of the positions; unused ones are H or OH. Bridge positions count the residues as written; N and C are the ends. Square brackets hold non-standard residues; d marks the D form. Peptide text beside a SMILES is read from it. Phe(4-CF3) = N[C@@H](Cc1ccc(C(F)(F)F)cc1)C(=O)O; Bip = N[C@@H](Cc1ccc(-c2ccccc2)cc1)C(=O)O; dPhe(4-NH2) = Nc1ccc(C[C@@H](N)C(=O)O)cc1; Phe(4-NH2) = Nc1ccc(C[C@H](N)C(=O)O)cc1; d(β3hF) = N[C@@H](CC(=O)O)Cc1ccccc1; d(hPhe) = N[C@H](CCc1ccccc1)C(=O)O; d2Thi = N[C@H](Cc1cccs1)C(=O)O; Suc = O=C(CCC(=O)[*:2])[*:1]; Aib = CC(C)(N)C(=O)O

1) O=C1CCC(=O)N[C@H](Cc2cccs2)C(=O)N[C@@H](Cc2ccc(-c3ccccc3)cc2)C(=O)N[C@H](Cc2ccccc2)CC(=O)N[C@H](C(=O)O)Cc2ccc(cc2)N1 [Compound 56] ([d2Thi][Bip][d(β3hF)][Phe(4-NH2)]-OH; linker N-4 via Suc): < 4.00
2) CC(C)(NC(=O)[C@H]1Cc2ccc(cc2)NC(=O)CCC(=O)N[C@H](CCc2ccccc2)C(=O)N[C@@H](Cc2ccc(C(F)(F)F)cc2)C(=O)N[C@H](Cc2ccccc2)C(=O)N1)C(=O)O [Compound 14] ([d(hPhe)][Phe(4-CF3)][dF][dPhe(4-NH2)][Aib]-OH; linker N-4 via Suc): 4.00 to 4.52
3) O=C(O)[C@@H]1Cc2ccc(cc2)NC(=O)[C@H](O)[C@@H](O)C(=O)N[C@H](Cc2cccs2)C(=O)N[C@@H](Cc2ccc(-c3ccccc3)cc2)C(=O)N[C@H](Cc2ccc(F)cc2)C(=O)N1: < 4.00

Exercise: If you can, please state the reported pIC50 value of `O=C1COc2ccc(cc2)C[C@@H](C(=O)O)NC(=O)[C@@H](CCc2ccccc2)NC(=O)[C@H](Cc2ccc(-c3ccccc3)cc2)NC(=O)[C@@H](Cc2ccc(-c3ccncc3)cc2)N1` .
Key: > 5.00

---

Reported pIC50 by item:
Molecular target: TNFα / TNFα receptor (TNFα R1/Fc) (Homo sapiens, UniProt P01375)
Construct: purchased R&D Systems
Experiment: Inhibition of binding of TNFα to the TNFα receptor (plate ELISA competition)
Conditions: Table 2; read-out: Activity (IC50, inhibition of TNFα binding to TNFα R1/Fc)
Description: The compounds listed in Table 2 below were assayed for ability to inhibit binding of TNFα to the TNFα receptor (TNFα R1/Fc). The assays were performed as described in the following procedure: TNFα (R&D Systems) was coated on high binding plate wells (Corning 96-well) at a single uniform concentration of 15 nM, 100 μL/well in PBS. […] The TMB reaction was stopped with the addition of 0.5N HCl and then the plate was read for absorbance at 450 nm.
pIC50: −log10 of the molar value. Bridge positions count the residues as written; N and C are the ends. Square brackets hold non-standard residues; d marks the D form. Peptide text beside a SMILES is read from it. Bip = N[C@@H](Cc1ccc(-c2ccccc2)cc1)C(=O)O; Phe(4-NH2) = Nc1ccc(C[C@H](N)C(=O)O)cc1; d2Thi = N[C@H](Cc1cccs1)C(=O)O

1. O=C1COc2ccc(cc2)C[C@@H](C(=O)O)NC(=O)[C@@H](CCc2ccccc2)NC(=O)[C@H](Cc2ccc(-c3ccccc3)cc2)NC(=O)[C@@H](CCc2ccccc2)N1: 4.52 to 5.00

Exercise: If you can, please state the reported pIC50 value of N[C@@H]1CC(=O)Nc2ccc(cc2)C[C@@H](C(=O)O)NC(=O)[C@@H](Cc2ccccc2)NC(=O)[C@H](Cc2ccc(-c3ccccc3)cc2)NC(=O)[C@@H](Cc2cccs2)NC1=O [Compound 372] (H-[dD][d2Thi][Bip][dF][Phe(4-NH2)]-OH; lactam 1-5) .
Key: < 4.00

---

test system: TNF-α (degradation of IkB in HeLa cells or A431 cells); experiment: Human cell-based assay: inhibition of TNF-α induced degradation of IkB; conditions: 10 μM compound, HeLa or A431 cells, read-out: Inhibition at Various Compound Concentrations, 10 μM
Numbered stars: 1 amine (or outer) side, 2 acyl side, 3 side chain; on linkers, the order of the positions; unused ones are H or OH. Bridge positions count the residues as written; N and C are the ends. Square brackets hold non-standard residues; d marks the D form. Peptide text beside a SMILES is read from it. Phe(4-CF3) = N[C@@H](Cc1ccc(C(F)(F)F)cc1)C(=O)O; Phe(4-NH2) = Nc1ccc(C[C@H](N)C(=O)O)cc1; d(hPhe) = N[C@H](CCc1ccccc1)C(=O)O; Suc = O=C(CCC(=O)[*:2])[*:1]; Ac3c = NC1(C(=O)O)CC1
reportedEndpoint: inhibition at 10 µM

1. NCCCC(=O)N[C@@H]1CC(=O)N[C@H](Cc2cccs2)C(=O)N[C@@H](Cc2ccc(-c3ccccc3)cc2)C(=O)N[C@H](Cc2ccccc2)C(=O)N[C@H](C(=O)O)Cc2ccc(cc2)NC1=O [Compound 382]: < 10%
2. O=C(O)[C@H](Cc1ccccc1)NC(=O)[C@@H]1Cc2ccc(cc2)NC(=O)[C@H](O)[C@@H](O)C(=O)N[C@H](Cc2ccc(F)c(F)c2)C(=O)N[C@@H](Cc2ccc(-c3ccccc3)cc2)C(=O)N[C@H](Cc2ccccc2)C(=O)N1 [Compound 282]: 10 to 50%
3. O=C1CCC(=O)N[C@H](CCc2ccccc2)C(=O)N[C@@H](Cc2ccc(C(F)(F)F)cc2)C(=O)N[C@H](Cc2ccccc2)C(=O)N[C@H](C(=O)NC2(C(=O)O)CC2)Cc2ccc(cc2)N1 [Compound 18] ([d(hPhe)][Phe(4-CF3)][dF][Phe(4-NH2)][Ac3c]-OH; linker N-4 via Suc): 10 to 50%

Attention now turns to another entry.
Exercise: If you can, please state the reported inhibition at 10 µM value of C[C@H](NC(=O)[C@@H]1Cc2ccc(cc2)OCC(=O)N[C@@H](Cc2cccs2)C(=O)N[C@H](Cc2ccc(-c3ccccc3)cc2)C(=O)N[C@@H](Cc2ccccc2)C(=O)N1)C(=O)O [Compound 385] .
Key: > 80%
